- Test system: Escherichia coli K-12
- Protocol description: Inhibition of acrAB AcrAB-TolC-mediated Nile Red efflux in marR mutant containing Escherichia coli K-12 3-AG102 overexpressing acrAB AcrAB-TolC assessed as time needed for 50% efflux after energization with 50 mM glucose at 200 uM by spectrofluorometric assay

| Compound structure | TIME |
| --- | --- |
| C[C@H]1c2cccc(O)c2C(=O)C2=C(O)[C@]3(O)C(=O)C(C(N)=O)=C(O)[C@@H](N(C)C)[C@@H]3[C@@H](O)[C@@H]21 | 0.0472 h |
| c1ccc2c(CN3CCNCC3)cccc2c1 | 0.0278 h |
| CN(C)[C@@H]1C(O)=C(C(N)=O)C(=O)[C@@]2(O)C(O)=C3C(=O)c4c(O)cccc4[C@@](C)(O)[C@H]3C[C@@H]12 | 0.025 h |
| CN(C)c1ccc(O)c2c1C[C@H]1C[C@H]3[C@H](N(C)C)C(O)=C(C(N)=O)C(=O)[C@@]3(O)C(O)=C1C2=O | > 0.0556 h |
| CN(C)[C@@H]1C(O)=C(C(N)=O)C(=O)[C@@]2(O)C(O)=C3C(=O)c4c(O)ccc(Cl)c4[C@@](C)(O)[C@H]3C[C@@H]12 | 0.0556 h |
| COc1cccc2c1C(=O)c1c(O)c3c(c(O)c1C2=O)C[C@@](O)(C(=O)CO)C[C@@H]3O[C@H]1C[C@H](N)[C@H](O)[C@H](C)O1 | > 0.0556 h |
| c1ccc([P+](c2ccccc2)(c2ccccc2)c2ccccc2)cc1 | 0.0292 h |
